molecular target: Human BCMA (human) (UniProt Q02223); assay: SPR, IgG on chip, huBCMA analyte
measured.parameter: kon (M⁻¹ s⁻¹)

1. A02_Rd4_0.6nM_C18 (antibody, V domains shown, IgG) VH: EVQLLESGGGLVQPGGSLRLSCAASGFTFSSYAMNWVRQAPGKGLEWVSAVLDSGGSTYYADSVKGRFTISRDNSKNTLYLQMNSLRAEDTAVYYCARYWPMSLWGQGTLVTVSS VL: EIVLTQSPGTLSLSPGERATLSCRASQSVSELYLAWYQQKPGQAPRLLMYDASIRATGIPDRFSGSGSGTDFTLTISRLEPEDFAVYYCQQYFGWPLTFGQGTKVEIK    4.73e+06
2. COMBO_Rd4_6nM_C21 (antibody, V domains shown, IgG) VH: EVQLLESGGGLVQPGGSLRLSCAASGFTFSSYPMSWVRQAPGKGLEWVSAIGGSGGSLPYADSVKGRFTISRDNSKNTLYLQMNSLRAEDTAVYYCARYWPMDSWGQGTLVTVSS VL: EIVLTQSPGTLSLSPGERATLSCRASQSVSAAYLAWYQQKPGQAPRLLMYDASIRATGIPDRFSGSGSGTDFTLTISRLEPEDFAVYYCQQYMCWPLTFGQGTKVEIK    1.17e+07
3. C01_Rd4_6nM_C20 (antibody, V domains shown, IgG) VH: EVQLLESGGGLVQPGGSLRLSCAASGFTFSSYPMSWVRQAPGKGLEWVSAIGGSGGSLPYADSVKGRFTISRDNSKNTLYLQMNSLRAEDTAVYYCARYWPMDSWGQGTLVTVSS VL: EIVLTQSPGTLSLSPGERATLSCRASQSVSPLYLAWYQQKPGQAPRLLIYDASSRAPGIPDRFSGSGSGTDFTLTISRLEPEDFAVYYCQQYSAFPLTFGQGTKVEIK    6.02e+06
4. COMBO_Rd4_6nM_C25 (antibody, V domains shown, IgG) VH: EVQLLESGGGLVQPGGSLRLSCAASGFTFSSYPMSWVRQAPGKGLEWVSAIGGSGGSTYYADSVKGRFTISRDNSKNTLYLQMNSLRAEDTAVYYCARYWPMDPWGQGTLVTVSS VL: EIVLTQSPGTLSLSPGERATLSCRASQSVSSPYLAWYQQKPGQAPRLLMYDASIRATGIPDRFSGSGSGTDFTLTISRLEPEDFAVYYCQQYQSWPLTFGQGTKVEIK    7.98e+06
5. A02_Rd4_0.6nM_C26 (antibody, V domains shown, IgG) VH: EVQLLESGGGLVQPGGSLRLSCAASGFTFSSYAMNWVRQAPGKGLEWVSAILMSGGSTYYADSVKGRFTISRDNSKNTLYLQMNSLRAEDTAVYYCARYWPMSLWGQGTLVTVSS VL: EIVLTQSPGTLSLSPGERATLSCGPSQSVSSSYLAWYQQKPGQAPRLLMYDASIRATGIPDRFSGSGSGTDFTLTISRLEPEDFAVYYCQQYQSWPLTFGQGTKVEIK    7.26e+06

Source: patent US20190241669A1
